Data provenance is ChEMBL document CHEMBL6074641.

molecular target: Mitogen-activated protein kinase kinase kinase kinase 4 (Homo sapiens); experiment: Inhibition of recombinant MAP4K4 (1 to 328 residues) (unknown origin) expressed in Escherichia coli BL21([…]) using MBP as substrate preincubated for 15 mins followed by substrate and ATP addition and measured after 90 mins by ADP-Glo luminescence […] assay
metric: log10 of IC50 (log10 of the value in nM)
Record value = log10 of IC50 given in nM.

(Q) Name the reported log10 of IC50 value associated with the compound `COc1ccc(Nc2cnc(Nc3cc(C)cc(F)c3)c(C(N)=O)c2)cc1`
(A) 3.26

Further cases:
(Q) Returns the measured log10 of IC50 for the input compound. Input: `Cc1cc(C)cc(Nc2cnc(Nc3cc(C)cc(F)c3)c(C(N)=O)c2)c1`
(A) 2.97

(Q) Fill in: log10 of IC50 of `Cc1cc(F)cc(Nc2ncc(Nc3ccc(F)cc3F)cc2C(N)=O)c1` is ___
(A) 3.28

(Q) Record request: log10 of IC50 value, item `Cc1cc(F)cc(Nc2ncc(Nc3ccc(C#N)cc3)cc2C(N)=O)c1`
(A) 2.64

(Q) Can you share its log10 of IC50? I mean this compound: `Cc1cc(F)cc(Nc2ncc(Nc3ccc(SC(F)(F)F)cc3)cc2C(N)=O)c1`
(A) 2.61

(Q) For the compound shown here, `COc1ccc(Nc2cnc(Nc3cc(C)cc(F)c3)c(C(N)=O)c2)c(C)c1` , give the reported log10 of IC50.
(A) 3.97

(Q) What does the data say about its log10 of IC50? Entry: `Cc1cc(F)cc(Nc2ncc(Nc3ccc(C)c(C)c3)cc2C(N)=O)c1`
(A) 3.14

---

molecular target: Cytochrome P450 3A5 (Homo sapiens, UniProt P20815)
Sequence (P20815 whole entry): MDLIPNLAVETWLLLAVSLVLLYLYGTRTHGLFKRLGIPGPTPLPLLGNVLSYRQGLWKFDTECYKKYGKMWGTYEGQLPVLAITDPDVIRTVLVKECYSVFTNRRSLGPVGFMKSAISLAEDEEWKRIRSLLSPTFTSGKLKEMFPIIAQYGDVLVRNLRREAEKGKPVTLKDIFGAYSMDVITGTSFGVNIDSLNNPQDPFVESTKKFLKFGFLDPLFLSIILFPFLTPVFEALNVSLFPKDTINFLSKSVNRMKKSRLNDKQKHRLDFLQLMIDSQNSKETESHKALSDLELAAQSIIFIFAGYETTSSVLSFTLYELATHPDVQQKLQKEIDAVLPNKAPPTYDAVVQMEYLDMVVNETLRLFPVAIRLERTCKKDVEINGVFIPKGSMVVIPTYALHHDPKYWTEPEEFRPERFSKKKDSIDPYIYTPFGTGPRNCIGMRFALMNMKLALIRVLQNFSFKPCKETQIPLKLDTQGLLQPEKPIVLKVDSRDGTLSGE
metric: IC50

(Q) # get_value(readout= IC50, system= Cytochrome P450 3A5 (Homo sapiens, UniProt P20815)) for `Cc1cc(F)cc(Nc2ncc(Nc3ccc(SC(F)(F)F)cc3)cc2C(N)=O)c1`
(A) > 10 µM

---

assay: Tmax in C57BL/6 mouse brain at 10 mg/kg, po measured upto 24 hrs by LC-MS/MS analysis; type: ADME, organism-based
metric: Tmax (h)
Value expressed in h; do not type the unit.

(Q) Suppose we examine the compound `Cc1cc(F)cc(Nc2ncc(Nc3ccc(SC(F)(F)F)cc3)cc2C(N)=O)c1` ; what Tmax value has been reported?
(A) 5.97

---

molecular target: hERG (KCNH2) (Homo sapiens); experiment: Inhibition of human ERG expressed in CHO cells at 20 uM by Qpatch clamp method relative to control; assay type: toxicity, cell-based; conditions: CHO cells that express hERG
Sequence (Q12809 whole entry): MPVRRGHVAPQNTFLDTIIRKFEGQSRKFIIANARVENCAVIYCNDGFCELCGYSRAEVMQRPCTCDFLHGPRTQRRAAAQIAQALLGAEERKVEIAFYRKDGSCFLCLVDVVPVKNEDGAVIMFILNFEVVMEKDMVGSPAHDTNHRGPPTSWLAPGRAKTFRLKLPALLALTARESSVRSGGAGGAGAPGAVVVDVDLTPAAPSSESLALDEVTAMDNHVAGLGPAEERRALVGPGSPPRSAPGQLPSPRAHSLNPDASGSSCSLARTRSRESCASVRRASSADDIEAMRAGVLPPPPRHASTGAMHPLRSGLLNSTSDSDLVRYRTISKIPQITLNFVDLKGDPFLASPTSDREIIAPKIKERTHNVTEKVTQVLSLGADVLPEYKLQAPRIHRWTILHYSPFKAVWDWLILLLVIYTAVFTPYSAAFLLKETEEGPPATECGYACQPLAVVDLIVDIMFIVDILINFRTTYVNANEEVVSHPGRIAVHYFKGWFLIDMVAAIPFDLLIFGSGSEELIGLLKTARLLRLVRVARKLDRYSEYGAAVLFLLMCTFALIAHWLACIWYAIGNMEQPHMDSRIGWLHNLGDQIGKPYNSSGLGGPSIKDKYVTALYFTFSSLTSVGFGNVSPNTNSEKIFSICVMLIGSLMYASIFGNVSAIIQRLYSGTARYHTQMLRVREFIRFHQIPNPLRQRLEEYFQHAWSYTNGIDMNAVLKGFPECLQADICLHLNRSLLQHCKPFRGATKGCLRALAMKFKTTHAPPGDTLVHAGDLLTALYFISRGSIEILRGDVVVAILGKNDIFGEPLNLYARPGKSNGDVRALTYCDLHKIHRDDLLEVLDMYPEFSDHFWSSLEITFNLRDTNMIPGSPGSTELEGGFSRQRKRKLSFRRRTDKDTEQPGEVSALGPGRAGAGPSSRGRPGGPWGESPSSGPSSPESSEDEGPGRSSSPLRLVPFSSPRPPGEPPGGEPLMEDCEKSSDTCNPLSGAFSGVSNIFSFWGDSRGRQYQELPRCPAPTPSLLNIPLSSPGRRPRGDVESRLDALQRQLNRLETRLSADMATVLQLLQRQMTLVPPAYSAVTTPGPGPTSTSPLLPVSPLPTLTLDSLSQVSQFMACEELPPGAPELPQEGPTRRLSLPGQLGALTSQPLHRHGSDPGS
metric: inhibition at 20 µM (%)
All answers are understood in %, so give the number only.

(Q) Which inhibition at 20 µM reading was recorded for the compound `Cc1cc(F)cc(Nc2ncc(Nc3ccc(SC(F)(F)F)cc3)cc2C(N)=O)c1` ?
(A) 11.3

---

molecular target: Mitogen-activated protein kinase kinase kinase kinase 4 (Homo sapiens, UniProt O95819); assay: Inhibition of recombinant MAP4K4 (1 to 328 residues) (unknown origin) expressed in Escherichia coli BL21([…]) using MBP as substrate preincubated for 15 mins followed by substrate and ATP addition and measured after 90 mins by ADP-Glo luminescence […] assay
Sequence (O95819 whole entry, the tested form may be a part): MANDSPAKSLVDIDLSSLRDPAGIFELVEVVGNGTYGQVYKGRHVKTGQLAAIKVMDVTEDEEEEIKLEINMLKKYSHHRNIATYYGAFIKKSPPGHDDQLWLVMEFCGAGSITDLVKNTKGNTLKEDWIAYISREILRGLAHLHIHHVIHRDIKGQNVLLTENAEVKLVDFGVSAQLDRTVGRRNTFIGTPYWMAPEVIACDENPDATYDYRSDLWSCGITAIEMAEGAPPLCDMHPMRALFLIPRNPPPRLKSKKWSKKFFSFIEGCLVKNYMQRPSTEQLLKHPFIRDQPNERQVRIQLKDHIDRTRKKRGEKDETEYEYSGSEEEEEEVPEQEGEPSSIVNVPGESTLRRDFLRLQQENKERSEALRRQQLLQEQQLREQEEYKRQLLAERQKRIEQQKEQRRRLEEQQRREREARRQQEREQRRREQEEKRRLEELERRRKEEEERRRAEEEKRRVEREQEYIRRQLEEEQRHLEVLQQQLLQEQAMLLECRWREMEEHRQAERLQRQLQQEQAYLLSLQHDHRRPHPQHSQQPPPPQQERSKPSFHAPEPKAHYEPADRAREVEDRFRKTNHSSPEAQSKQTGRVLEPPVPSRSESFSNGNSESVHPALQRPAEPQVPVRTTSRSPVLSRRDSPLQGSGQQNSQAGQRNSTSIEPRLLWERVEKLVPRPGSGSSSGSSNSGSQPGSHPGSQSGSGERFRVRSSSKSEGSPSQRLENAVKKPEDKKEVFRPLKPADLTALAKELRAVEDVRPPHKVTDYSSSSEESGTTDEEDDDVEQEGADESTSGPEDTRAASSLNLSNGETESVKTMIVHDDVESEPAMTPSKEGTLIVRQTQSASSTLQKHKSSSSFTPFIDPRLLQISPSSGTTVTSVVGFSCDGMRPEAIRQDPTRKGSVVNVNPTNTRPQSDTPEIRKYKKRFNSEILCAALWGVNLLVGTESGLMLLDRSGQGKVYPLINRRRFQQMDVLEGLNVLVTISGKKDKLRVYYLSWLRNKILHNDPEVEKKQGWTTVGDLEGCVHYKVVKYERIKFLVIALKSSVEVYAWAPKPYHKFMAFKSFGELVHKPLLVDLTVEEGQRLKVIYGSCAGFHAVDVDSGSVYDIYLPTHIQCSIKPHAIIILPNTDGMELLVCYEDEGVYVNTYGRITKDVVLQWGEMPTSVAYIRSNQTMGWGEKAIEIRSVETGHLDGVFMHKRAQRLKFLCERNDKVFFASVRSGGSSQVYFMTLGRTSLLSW
metric: pIC50
Entry type: numeric. Quantity: pIC50, the -log10 of concentration in molar units.

Completed entries (count: 5):
(Q) Query: pIC50; subject: `COc1ccc(Nc2cnc(Nc3cc(C)cc(F)c3)c(C(N)=O)c2)c(F)c1`
(A) 5.50

(Q) # query: pIC50 of entry `Cc1cc(F)cc(Nc2ncc(Nc3cccc(C#N)c3)cc2C(N)=O)c1`
(A) 6.28

(Q) Request the reported pIC50 associated with `Cc1cc(F)cc(Nc2ncc(Nc3ccc4c(c3)CCCC4)cc2C(N)=O)c1`
(A) 5.65

(Q) So what does the record say about pIC50 for `Cc1cc(F)cc(Nc2ncc(Nc3ccccc3C)cc2C(N)=O)c1` ?
(A) 6.01

(Q) Return reported pIC50; argument: `Cc1cc(F)cc(Nc2ncc(Nc3ccccc3)cc2C(N)=O)c1`
(A) 6.12

***
(Q) Tell me the measured pIC50 of `Cc1cc(F)cc(Nc2ncc(Nc3ccc(-c4ccco4)cc3)cc2C(N)=O)c1` , please.
(A) 6.19

(Q) May I ask what pIC50 has been recorded for `Cc1cc(F)cc(Nc2ncccc2C(N)=O)c1` ?
(A) 6.18

(Q) GET /values?readout=pIC50&item= `CCCc1ccc(Nc2cnc(Nc3cc(C)cc(F)c3)c(C(N)=O)c2)cc1`
(A) 4.89

(Q) Field request: pIC50 | item: `Cc1cc(F)cc(Nc2ncc(Nc3ccc4c(c3)OCO4)cc2C(N)=O)c1`
(A) 5.65
